- measured-target: FGFR1 (Homo sapiens)
- Construct: made in house; host or cells: E. coli (BL21-derived), T7 phage
- Sequence (P11362 22-822): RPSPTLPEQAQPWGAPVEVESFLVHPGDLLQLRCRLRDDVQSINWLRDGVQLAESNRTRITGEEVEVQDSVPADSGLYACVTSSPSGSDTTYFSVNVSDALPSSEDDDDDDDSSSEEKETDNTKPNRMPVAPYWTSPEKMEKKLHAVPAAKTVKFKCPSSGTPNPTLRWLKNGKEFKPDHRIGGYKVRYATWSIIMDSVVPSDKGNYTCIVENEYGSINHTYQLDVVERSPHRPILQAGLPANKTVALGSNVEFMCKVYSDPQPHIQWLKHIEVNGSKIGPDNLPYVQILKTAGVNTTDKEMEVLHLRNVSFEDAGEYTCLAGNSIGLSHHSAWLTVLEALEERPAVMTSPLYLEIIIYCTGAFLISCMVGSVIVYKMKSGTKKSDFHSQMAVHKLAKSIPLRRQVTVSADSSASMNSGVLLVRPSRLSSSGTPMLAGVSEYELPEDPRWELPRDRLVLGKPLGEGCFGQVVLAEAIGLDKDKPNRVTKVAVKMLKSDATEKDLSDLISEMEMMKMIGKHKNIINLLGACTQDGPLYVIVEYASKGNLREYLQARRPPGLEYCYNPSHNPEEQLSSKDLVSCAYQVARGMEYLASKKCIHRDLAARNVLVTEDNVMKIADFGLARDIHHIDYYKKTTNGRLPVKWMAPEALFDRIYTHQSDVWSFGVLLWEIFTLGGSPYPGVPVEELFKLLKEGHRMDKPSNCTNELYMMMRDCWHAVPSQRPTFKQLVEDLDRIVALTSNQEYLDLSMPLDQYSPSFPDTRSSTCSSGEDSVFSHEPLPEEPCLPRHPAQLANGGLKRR
- measurement-protocol: Kinase binding assay (kinase-tagged T7 phage, affinity beads, qPCR), Kd
- assay-setup: read-out: FGFR1 (Kd nM)
Counter-ions that a name gives are not always drawn.

compound | Kd
COc1cc2[nH]nc(-c3cnc(N4CC(C)(CP(C)(C)=O)C4)c(C#N)c3)c2cc1O[C@H](C)c1c(Cl)cncc1Cl | 1 to 50 nM
C[C@@H](Oc1cc2c(-c3cnc(N4CC5(CC5)C4)nc3)n[nH]c2cc1F)c1c(Cl)cncc1Cl | 50 to 300 nM
CC(C)CNC1(CC#N)CN(c2ncc(-c3n[nH]c4ccc(O[C@H](C)c5c(Cl)cncc5Cl)cc34)cc2F)C1 [Example 253, dihydrochloride] | 50 to 300 nM
C[C@@H](Oc1ccc2[nH]nc(-c3cnc(N4CC(C)(N[C@H]5CCOC5)C4)c(C#N)c3)c2c1)c1c(Cl)cncc1Cl | 1 to 50 nM
COc1cc2[nH]nc(-c3ccc(N4CC(C)(NCCO)C4)nc3)c2cc1O[C@H](C)c1c(Cl)cncc1Cl | 1 to 50 nM
C[C@@H](Oc1ccc2[nH]nc(-c3cnc(N4CC(C)(CN5CCOCC5)C4)c(C#N)c3)c2c1)c1c(Cl)cncc1Cl | 50 to 300 nM
C[C@@H](Oc1ccc2[nH]nc(-c3cnc(N4CC(N)(C(=O)N(C)C)C4)c(F)c3)c2c1)c1c(Cl)cncc1Cl | 1 to 50 nM

* * *

A collection of compounds and their measured IC50
- Test system: KG-1 cell line (FGFR 1-fusion)
- measurement-protocol: Cancer cell line cell viability assay (Cell Titer-Glo), 72 hr
- Type: cell-based
- assay-setup: Homo sapiens, KG-1, KG-1 cell line (FGFR1-fusion)

compound-string | measured-target | IC50
CNC1(C)CN(c2ncc(-c3n[nH]c4ccc(O[C@@H](C)c5c(Cl)cncc5Cl)cc34)cc2F)C1 | KG-1 cell line (FGFR 1-fusion) | > 1000 nM
C[C@@H](Oc1ccc2[nH]nc(-c3cnc(N4CC(C)(N5CCP(C)(=O)CC5)C4)c(C#N)c3)c2c1)c1c(Cl)cncc1Cl | KG-1 cell line (FGFR 1-fusion) | > 1000 nM
CC(C)OC(=O)C1(N)CN(c2ccc(-c3n[nH]c4ccc(O[C@H](C)c5c(Cl)cncc5Cl)cc34)nn2)C1 | KG-1 cell line (FGFR 1-fusion) | 200 to 1000 nM
C[C@@H](Oc1ccc2[nH]nc(-c3cnc(N4CC(N)(c5ccnn5C)C4)c(F)c3)c2c1)c1c(Cl)cncc1Cl | KG-1 cell line (FGFR 1-fusion) | 50 to 200 nM
C[C@@H](Oc1cc2c(-c3cnc(N4CC(C)(NCCO)C4)c(C#N)c3)n[nH]c2cc1F)c1c(Cl)cncc1Cl | KG-1 cell line (FGFR 1-fusion) | 200 to 1000 nM
C[C@@H](Oc1ccc2[nH]nc(-c3cnc(N4CC(C)(NCC5CC5)C4)c(C#N)c3)c2c1)c1c(Cl)cncc1Cl | KG-1 cell line (FGFR 1-fusion) | 200 to 1000 nM
CNC(=O)C1(N)CN(c2ccc(-c3n[nH]c4ccc(O[C@H](C)c5c(Cl)cncc5Cl)cc34)nn2)C1 | KG-1 cell line (FGFR 1-fusion) | > 1000 nM
COc1cc2[nH]nc(-c3cnc(N4CC(C)(N(C)C)C4)c(C#N)c3)c2cc1O[C@H](C)c1c(Cl)cncc1Cl | KG-1 cell line (FGFR 1-fusion) | 50 to 200 nM
C[C@@H](Oc1ccc2[nH]nc(-c3ccc(N4CC(C)(CN(C)S(C)(=O)=O)C4)nc3)c2c1)c1c(Cl)cncc1Cl | KG-1 cell line (FGFR 1-fusion) | 50 to 200 nM
C[C@@H](Oc1ccc2[nH]nc(-c3cnc(N4CC(C)(CP(C)(C)=O)C4)c(C#N)c3)c2c1)c1c(Cl)cncc1Cl | KG-1 cell line (FGFR 1-fusion) | > 1000 nM
COc1cc2[nH]nc(-c3cnc(N4CC(C)(N)C4)c(C#N)c3)c2cc1O[C@H](C)c1c(Cl)cncc1Cl | KG-1 cell line (FGFR 1-fusion) | 50 to 200 nM
C[C@@H](Oc1ccc2[nH]nc(-c3cnc(N4CC(C)(N5CCP(C)(=O)CC5)C4)c(F)c3)c2c1)c1c(Cl)cncc1Cl | KG-1 cell line (FGFR 1-fusion) | 200 to 1000 nM

* * *

- Test system: KG-1 cell line (FGFR 1-fusion)
- measurement-protocol: Cancer cell line cell viability assay (Cell Titer-Glo), 72 hr
- Assay type: cell-based
- assay-setup: Homo sapiens, KG-1, KG-1 cell line (FGFR1-fusion)
readout-kind: IC50

compound-string | readout-kind | result
C[C@@H](Oc1ccc2[nH]nc(-c3ccc(N4CC(C)(NCC5CC5)C4)nc3F)c2c1)c1c(Cl)cncc1Cl | IC50 | 0.1 to 50 nM
COC1(C)CN(C2(C)CN(c3ncc(-c4n[nH]c5ccc(O[C@H](C)c6c(Cl)cncc6Cl)cc45)cc3F)C2)C1 | IC50 | 50 to 200 nM
C[C@@H](Oc1ccc2[nH]nc(-c3ccc(N4CC(C)(NC(=O)CN(C)C)C4)nc3)c2c1)c1c(Cl)cncc1Cl | IC50 | 0.1 to 50 nM
COCCC1(N)CN(c2ncc(-c3n[nH]c4ccc(O[C@H](C)c5c(Cl)cncc5Cl)cc34)cc2F)C1 | IC50 | 0.1 to 50 nM
C[C@@H](Oc1ccc2[nH]nc(-c3ccc(N4CC(N)(CC5CC5)C4)nn3)c2c1)c1c(Cl)cncc1Cl | IC50 | 50 to 200 nM
CC(C)C1(N)CN(c2ncc(-c3n[nH]c4ccc(O[C@H](C)c5c(Cl)cncc5Cl)cc34)cc2F)C1 | IC50 | 50 to 200 nM
C[C@@H](Oc1ccc2[nH]nc(-c3cnc(N4CC(C)(N5CC6CC(C5)O6)C4)c(F)c3)c2c1)c1c(Cl)cncc1Cl | IC50 | 50 to 200 nM

* * *

- measured-target: FGFR2 (Homo sapiens)
- Construct: made in house; host or cells: E. coli (BL21-derived), T7 phage
- Sequence (P21802 22-821): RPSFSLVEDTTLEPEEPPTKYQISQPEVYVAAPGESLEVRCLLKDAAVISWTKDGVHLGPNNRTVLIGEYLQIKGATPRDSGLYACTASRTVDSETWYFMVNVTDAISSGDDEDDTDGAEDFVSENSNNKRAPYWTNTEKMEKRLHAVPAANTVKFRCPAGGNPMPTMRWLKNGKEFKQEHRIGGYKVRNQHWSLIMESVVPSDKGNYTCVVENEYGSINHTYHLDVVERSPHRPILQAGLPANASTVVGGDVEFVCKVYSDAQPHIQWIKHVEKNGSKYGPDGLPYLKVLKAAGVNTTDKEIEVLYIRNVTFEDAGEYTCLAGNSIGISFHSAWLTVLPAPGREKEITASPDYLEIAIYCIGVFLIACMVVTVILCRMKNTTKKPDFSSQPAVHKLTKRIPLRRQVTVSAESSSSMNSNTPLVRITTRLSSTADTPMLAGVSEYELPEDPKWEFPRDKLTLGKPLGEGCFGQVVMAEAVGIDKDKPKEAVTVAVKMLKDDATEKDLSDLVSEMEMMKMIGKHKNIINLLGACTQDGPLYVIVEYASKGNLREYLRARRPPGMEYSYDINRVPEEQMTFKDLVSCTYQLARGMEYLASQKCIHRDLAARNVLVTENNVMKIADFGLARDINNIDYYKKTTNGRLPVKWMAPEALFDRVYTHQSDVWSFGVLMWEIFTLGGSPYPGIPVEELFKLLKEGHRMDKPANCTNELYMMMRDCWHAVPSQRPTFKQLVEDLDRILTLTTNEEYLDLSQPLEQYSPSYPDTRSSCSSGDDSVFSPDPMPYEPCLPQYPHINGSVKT
- measurement-protocol: Kinase binding assay (kinase-tagged T7 phage, affinity beads, qPCR), Kd
- assay-setup: read-out: FGFR2 (Kd nM)

molecule | Kd
C[C@@H](Oc1ccc2[nH]nc(-c3cnc(N4CC(C)(CN5CCOCC5)C4)c(C#N)c3)c2c1)c1c(Cl)cncc1Cl [Example 122] | 50 to 300 nM
CC[C@@H](C)NC1(C)CN(c2ncc(-c3n[nH]c4ccc(O[C@H](C)c5c(Cl)cncc5Cl)cc34)cc2F)C1 [Example 140] | 1 to 50 nM
COc1cc2[nH]nc(-c3cnc(N4CC(N)(C5CCC5)C4)c(C#N)c3)c2cc1O[C@H](C)c1c(Cl)cncc1Cl [Example 356] | 1 to 50 nM
CC[C@@H](C)NC1(C)CN(c2ncc(-c3n[nH]c4cc(OC)c(O[C@H](C)c5c(Cl)cncc5Cl)cc34)cc2C#N)C1 [Example 145] | 1 to 50 nM
C[C@@H](Oc1ccc2[nH]nc(-c3cnc(N4CC(C)(NCC5CC5)C4)c(F)c3)c2c1)c1c(Cl)cncc1Cl [Example 106] | 1 to 50 nM

* * *

- measured-target: FGFR1 (Homo sapiens)
- Construct: made in house; host or cells: E. coli (BL21-derived), T7 phage
- measurement-protocol: Kinase binding assay (kinase-tagged T7 phage, affinity beads, qPCR), Kd
- assay-setup: read-out: FGFR1 (Kd nM)
A collection of compounds and their measured Kd

compound-string | Kd
COc1cc2[nH]nc(-c3cnc(N4CC(C)(N5CC(C)(OC)C5)C4)c(C#N)c3)c2cc1O[C@H](C)c1c(Cl)cncc1Cl | 1 to 50 nM
C[C@H](Oc1ccc2[nH]nc(-c3cnc(N4C[C@H](CS(C)(=O)=O)[C@H]4C)c(F)c3)c2c1)c1c(Cl)cncc1Cl | > 1000 nM
C[C@@H](Oc1ccc2[nH]nc(-c3cnc(N4CC(N)(CCS(C)(=O)=O)C4)c(F)c3)c2c1)c1c(Cl)cncc1Cl | 1 to 50 nM
CNC(=O)C1(N)CN(c2ccc(-c3n[nH]c4ccc(O[C@H](C)c5c(Cl)cncc5Cl)cc34)nn2)C1 | 1 to 50 nM
C[C@@H](Oc1ccc2[nH]nc(-c3ccc(N4CC(C)(N5C[C@H]6C[C@@H]5CO6)C4)nc3)c2c1)c1c(Cl)cncc1Cl | 1 to 50 nM

* * *

A collection of compounds and their measured Kd
- measured-target: FGFR1 (Homo sapiens)
- Construct: made in house; host or cells: E. coli (BL21-derived), T7 phage
- measurement-protocol: Kinase binding assay (kinase-tagged T7 phage, affinity beads, qPCR), Kd
- assay-setup: read-out: FGFR1 (Kd nM)
readout-kind: Kd

compound-string | result
COc1cc2[nH]nc(-c3cnc(N4CC(C)(NCCO)C4)nc3)c2cc1O[C@H](C)c1c(Cl)cncc1Cl | 1 to 50 nM
C[C@@H](Oc1ccc2[nH]nc(-c3ccc(N4CC(N)(C(=O)N(C)C)C4)nn3)c2c1)c1c(Cl)cncc1Cl | 1 to 50 nM
C[C@@H](Oc1cc2c(-c3cnc(N4CC(C)(N5CCCC5)C4)c(C#N)c3)n[nH]c2cc1F)c1c(Cl)cncc1Cl | 50 to 300 nM
Cc1ncc(Cl)c([C@@H](C)Oc2ccc3[nH]nc(-c4cnc(N5CC(C)(N(C)C)C5)c(C#N)c4)c3c2)c1Cl | 50 to 300 nM
COc1cc2[nH]nc(-c3cnc(N4CC(N)(CC(C)(C)O)C4)c(C#N)c3)c2cc1O[C@H](C)c1c(Cl)cncc1Cl | 1 to 50 nM
COCCNC1(C)CN(c2ncc(-c3n[nH]c4ccc(O[C@H](C)c5c(Cl)cncc5Cl)cc34)cc2C#N)C1 | 1 to 50 nM
COc1cc2[nH]nc(-c3cnc(N4CC(C)(NCP(C)(C)=O)C4)c(C#N)c3)c2cc1O[C@H](C)c1c(Cl)cncc1Cl | 1 to 50 nM
C[C@@H](Oc1ccc2[nH]nc(-c3ccc(N4CC(C)(CN5CCCC5)C4)nc3)c2c1F)c1c(Cl)cncc1Cl | 300 to 1000 nM
